- Tested on: UACC-257 melanoma
- assay-notes: NCI tumour cell line growth inhibition, 48 h
measure-name: TGI (µM)
Give your result in µM as a bare value.

1. ON(Cc1ccccc1)C(=S)c1ccccc1: 39.4

Pending compound:
Request: Tell me measured TGI for CC1=CC(=O)C(C(C)C)=CC1=Nc1cc(Br)c(O)c(Br)c1 please.
Result: 33.1

* * *

- Tested on: OVCAR-3 ovarian
- assay-notes: NCI tumour cell line growth inhibition, 48 h
measure-name: GI50

1. CC1=CC(=O)C(C(C)C)=CC1=Nc1cc(Br)c(O)c(Br)c1: 2680 nM
2. COc1ccc(/C=c2\sc3n(c2=O)C2C(NN=3)N(C)C(=O)N2C)cc1 (stereo not drawn): 481 nM

Request: Tell me measured GI50 for COc1cccc(-c2ccc3c(c2)C2CCN(Cc4ccccc4)C3C2)c1 (stereo not drawn) please.
Result: 4490 nM

src = PubChem BioAssay (NCI)
